Assign Activity to each entry below.
Species on record: Rattus norvegicus
Assay: Reduction in sterol level in CFE rat […] in serum at 0.1% of diet treated through diet for 6 days relative to control
Format: functional
Parameters: scale not given: the % may be the effect or the level left
Please respond with the number in % and leave the unit unwritten.

Asked: Reported Activity, compound CCCCCCCCCCCC1OC1CCCOc1ccc(C(=O)O)cc1 (configuration not stated) : ____
Given back: 85

Asked: Entry CCCCCCCCCCCCC(C)(C)Oc1ccc(C(=O)O)cc1 please
Given back: 97

Asked: Entry COC(=O)c1ccc(OCCCCCCCCCCCSCc2ccccc2)cc1 please
Given back: 87

Asked: Entry CCCCCCCCCCCCC(CCC)Oc1ccc(C(=O)O)cc1 (configuration not stated) please
Given back: 74

Asked: Entry CCSCCCCCCCCCCCCCCCCOc1ccc(C(=O)O)cc1 please
Given back: 90

Asked: Entry CCCCCCCCCCCC(=O)CCOc1ccc(C(=O)OC)cc1 please
Given back: 81

Asked: Entry CCCCCCCCCCCC1OC1CCCOc1ccc(C(=O)OC)cc1 (configuration not stated) please
Given back: 84

Asked: Entry O=C(O)c1ccc(OCCCCCCCCCCCCCCCOc2ccc(C(=O)O)cc2)cc1 please
Given back: 94

Asked: Entry O=C(O)c1ccc(OCCCCCCCCCCCS)cc1 please
Given back: 80

Asked: Entry CCCCCCCCCCCC(CCOc1ccc(C(=O)OC)cc1)OS(=O)(=O)c1ccc(C)cc1 (configuration not stated) please
Given back: 98

Asked: Entry CCCCCCCCCCCCCCC(C)(CC)Oc1ccc(C(=O)O)cc1 (configuration not stated) please
Given back: 102

Asked: Entry COC(=O)c1ccc(OCCCCCCCCCCCCCCCO)cc1 please
Given back: 93
